# Target Under Test: T1, mouse programmed cell death protein 1 Fc fusion protein (mPD-1-Fc), mPD-1 C60S (aa 25-167) (Mus musculus, UniProt Q02242, stabilised)
# T1 construct: not cleaved; source: Expi293F, purified (Protein A, SEC; dimeric fraction); not shown: Fc (human), C-terminal, kept
# Experiment: SPR; Carterra LSA; Fab from the ammonium sulfate precipitate of the culture supernatant immobilised on a NiHC200M chip; hPD-1 (1-1024 nM) or mPD-1-Fc (4-1024 nM) as analyte, fourfold dilution series, no regeneration; HBS-EP pH 7.4, 25 °C; medians over the spots of a construct, KD = koff/kon
# Measurement Context: one partner purified
Endpoint Label: log10 Kd (log10 of the value in nM)
Hello, just confirming the data are log10 of Kd with units of nM.

The binder identified as toripalimab Fab L.P100E (Fab, V domains shown, as the heavy chain of Sm3; light chain of Sm3 with this change; numbers count from the chain's first residue; source: Brevibacillus, culture supernatant (ammonium sulfate precipitate); not shown: 6xHis, C-terminal, kept; 6xHN, C-terminal, kept) VH: QGQLVQSGAEVKKPGASVKVSCKASGYTFTDYEMHWVRQAPIHGLEWIGVIESETGGTAYNQKFKGRVTITADKSTSTAYMELSSLRSEDTAVYYCAREGITTVATTYYWYFDVWGQGTTVTVSS VL: DVVMTQSPLSLPVTLGQPASISCRSSQSIVHSNGNTYLEWYLQKPGQSPQLLIYKVSNRFSGVPDRFSGSGSGTDFTLKISRVEAEDVGVYYCFQGSHVELTFGQGTKLEIK registered its log10 Kd at 1.30

Consider toripalimab Fab H.Q62Y (Fab, V domains shown, heavy chain of Sm3 with this change; numbers count from the chain's first residue; as the light chain of Sm3; source: Brevibacillus, culture supernatant (ammonium sulfate precipitate); not shown: 6xHis, C-terminal, kept; 6xHN, C-terminal, kept) VH: QGQLVQSGAEVKKPGASVKVSCKASGYTFTDYEMHWVRQAPIHGLEWIGVIESETGGTAYNYKFKGRVTITADKSTSTAYMELSSLRSEDTAVYYCAREGITTVATTYYWYFDVWGQGTTVTVSS VL: DVVMTQSPLSLPVTLGQPASISCRSSQSIVHSNGNTYLEWYLQKPGQSPQLLIYKVSNRFSGVPDRFSGSGSGTDFTLKISRVEAEDVGVYYCFQGSHVPLTFGQGTKLEIK . Its measured log10 Kd is 2.27

Given item toripalimab Fab L.R59Y (Fab, V domains shown, as the heavy chain of Sm3; light chain of Sm3 with this change; numbers count from the chain's first residue; source: Brevibacillus, culture supernatant (ammonium sulfate precipitate); not shown: 6xHis, C-terminal, kept; 6xHN, C-terminal, kept) VH: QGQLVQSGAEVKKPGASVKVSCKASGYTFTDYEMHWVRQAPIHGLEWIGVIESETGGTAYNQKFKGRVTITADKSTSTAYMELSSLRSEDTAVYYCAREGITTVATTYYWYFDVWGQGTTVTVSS VL: DVVMTQSPLSLPVTLGQPASISCRSSQSIVHSNGNTYLEWYLQKPGQSPQLLIYKVSNYFSGVPDRFSGSGSGTDFTLKISRVEAEDVGVYYCFQGSHVPLTFGQGTKLEIK , the value recorded as its log10 Kd is 2.33

Just so you know, measured log10 Kd for toripalimab Fab L.Q27A (Fab, V domains shown, as the heavy chain of Sm3; light chain of Sm3 with this change; numbers count from the chain's first residue; source: Brevibacillus, culture supernatant (ammonium sulfate precipitate); not shown: 6xHis, C-terminal, kept; 6xHN, C-terminal, kept) VH: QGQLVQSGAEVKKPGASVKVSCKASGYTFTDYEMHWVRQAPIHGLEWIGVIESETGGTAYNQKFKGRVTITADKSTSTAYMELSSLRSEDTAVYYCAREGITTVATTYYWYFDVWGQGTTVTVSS VL: DVVMTQSPLSLPVTLGQPASISCRSSASIVHSNGNTYLEWYLQKPGQSPQLLIYKVSNRFSGVPDRFSGSGSGTDFTLKISRVEAEDVGVYYCFQGSHVPLTFGQGTKLEIK came out at 2.34

Form: binder = toripalimab Fab H.V104Y (Fab, V domains shown, heavy chain of Sm3 with this change; numbers count from the chain's first residue; as the light chain of Sm3; source: Brevibacillus, culture supernatant (ammonium sulfate precipitate); not shown: 6xHis, C-terminal, kept; 6xHN, C-terminal, kept) VH: QGQLVQSGAEVKKPGASVKVSCKASGYTFTDYEMHWVRQAPIHGLEWIGVIESETGGTAYNQKFKGRVTITADKSTSTAYMELSSLRSEDTAVYYCAREGITTYATTYYWYFDVWGQGTTVTVSS VL: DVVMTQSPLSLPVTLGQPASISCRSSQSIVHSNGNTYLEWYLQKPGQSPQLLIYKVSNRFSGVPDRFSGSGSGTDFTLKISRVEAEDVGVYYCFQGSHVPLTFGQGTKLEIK ; log10 Kd = 1.98

Briefly, log10 Kd measured for toripalimab Fab L.L101Q (Fab, V domains shown, as the heavy chain of Sm3; light chain of Sm3 with this change; numbers count from the chain's first residue; source: Brevibacillus, culture supernatant (ammonium sulfate precipitate); not shown: 6xHis, C-terminal, kept; 6xHN, C-terminal, kept) VH: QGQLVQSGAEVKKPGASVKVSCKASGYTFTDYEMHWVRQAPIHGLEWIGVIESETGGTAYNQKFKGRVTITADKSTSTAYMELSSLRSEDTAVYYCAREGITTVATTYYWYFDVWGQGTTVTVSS VL: DVVMTQSPLSLPVTLGQPASISCRSSQSIVHSNGNTYLEWYLQKPGQSPQLLIYKVSNRFSGVPDRFSGSGSGTDFTLKISRVEAEDVGVYYCFQGSHVPQTFGQGTKLEIK : 2.42

Recorded result, toripalimab Fab L.L101F (Fab, V domains shown, as the heavy chain of Sm3; light chain of Sm3 with this change; numbers count from the chain's first residue; source: Brevibacillus, culture supernatant (ammonium sulfate precipitate); not shown: 6xHis, C-terminal, kept; 6xHN, C-terminal, kept) VH: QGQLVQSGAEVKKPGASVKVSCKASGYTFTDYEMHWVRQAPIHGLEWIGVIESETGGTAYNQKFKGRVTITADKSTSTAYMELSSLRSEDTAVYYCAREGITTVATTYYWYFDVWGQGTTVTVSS VL: DVVMTQSPLSLPVTLGQPASISCRSSQSIVHSNGNTYLEWYLQKPGQSPQLLIYKVSNRFSGVPDRFSGSGSGTDFTLKISRVEAEDVGVYYCFQGSHVPFTFGQGTKLEIK , log10 Kd: 3.01

// sample toripalimab Fab H.G100A (Fab, V domains shown, heavy chain of Sm3 with this change; numbers count from the chain's first residue; as the light chain of Sm3; source: Brevibacillus, culture supernatant (ammonium sulfate precipitate); not shown: 6xHis, C-terminal, kept; 6xHN, C-terminal, kept) VH: QGQLVQSGAEVKKPGASVKVSCKASGYTFTDYEMHWVRQAPIHGLEWIGVIESETGGTAYNQKFKGRVTITADKSTSTAYMELSSLRSEDTAVYYCAREAITTVATTYYWYFDVWGQGTTVTVSS VL: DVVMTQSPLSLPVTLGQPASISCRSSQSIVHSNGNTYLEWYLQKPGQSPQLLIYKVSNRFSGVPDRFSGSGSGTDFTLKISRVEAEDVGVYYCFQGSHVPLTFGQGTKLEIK , its log10 Kd was 2.67

Notebook: toripalimab Fab L.P100V (Fab, V domains shown, as the heavy chain of Sm3; light chain of Sm3 with this change; numbers count from the chain's first residue; source: Brevibacillus, culture supernatant (ammonium sulfate precipitate); not shown: 6xHis, C-terminal, kept; 6xHN, C-terminal, kept) VH: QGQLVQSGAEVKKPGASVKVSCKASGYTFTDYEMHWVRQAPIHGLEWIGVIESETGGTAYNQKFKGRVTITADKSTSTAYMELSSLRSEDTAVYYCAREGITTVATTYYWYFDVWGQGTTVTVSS VL: DVVMTQSPLSLPVTLGQPASISCRSSQSIVHSNGNTYLEWYLQKPGQSPQLLIYKVSNRFSGVPDRFSGSGSGTDFTLKISRVEAEDVGVYYCFQGSHVVLTFGQGTKLEIK , log10 Kd read as 1.48

The binder toripalimab Fab L.K55Y (Fab, V domains shown, as the heavy chain of Sm3; light chain of Sm3 with this change; numbers count from the chain's first residue; source: Brevibacillus, culture supernatant (ammonium sulfate precipitate); not shown: 6xHis, C-terminal, kept; 6xHN, C-terminal, kept) VH: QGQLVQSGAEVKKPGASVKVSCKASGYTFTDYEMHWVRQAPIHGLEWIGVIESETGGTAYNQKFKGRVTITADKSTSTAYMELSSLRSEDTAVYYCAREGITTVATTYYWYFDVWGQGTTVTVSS VL: DVVMTQSPLSLPVTLGQPASISCRSSQSIVHSNGNTYLEWYLQKPGQSPQLLIYYVSNRFSGVPDRFSGSGSGTDFTLKISRVEAEDVGVYYCFQGSHVPLTFGQGTKLEIK showed log10 Kd equal to 2.37
